Experiment: Steady state kinetics of purified NTR, variable substrate CB1954
Type: biochemical
Details: variable substrate CB1954, fixed substrate NADH
attribute measured: kcat (s⁻¹)
Answer in s⁻¹, number only, no unit symbol.

Some entries whose results are on file:
molecule | scale unit | kcat
T41L: NTR mutant, threonine 41 to leucine (protein) MDIISVALKRHSTKAFDASKKLTPEQAEQIKTLLQYSPSSLNSQPWHFIVASTEEGKARVAKSAAGNYVFNERKMLDASHVVVFCAKTAMDDVWLKLVVDQEDADGRFATPEAKAANDKGRKFFADMHRKDLHDDAEWMAKQVYLNVGNFLLGVAALGLDAVPIEGFDAAILDAEFGLKEKGYTSLVVVPVGHHSVEDFNATLPKSRLPQNITLTEV | s⁻¹ | 16.2
Y68G: NTR mutant, tyrosine 68 to glycine (protein) MDIISVALKRHSTKAFDASKKLTPEQAEQIKTLLQYSPSSTNSQPWHFIVASTEEGKARVAKSAAGNGVFNERKMLDASHVVVFCAKTAMDDVWLKLVVDQEDADGRFATPEAKAANDKGRKFFADMHRKDLHDDAEWMAKQVYLNVGNFLLGVAALGLDAVPIEGFDAAILDAEFGLKEKGYTSLVVVPVGHHSVEDFNATLPKSRLPQNITLTEV | s⁻¹ | 11.5

What does the data say about its kcat? Entry: Wild type: wild-type E. coli nitroreductase (NTR) encoded by the NfsB gene, SEQ ID NO:1 (protein, listed as Escherichia coli) MDIISVALKRHSTKAFDASKKLTPEQAEQIKTLLQYSPSSTNSQPWHFIVASTEEGKARVAKSAAGNYVFNERKMLDASHVVVFCAKTAMDDVWLKLVVDQEDADGRFATPEAKAANDKGRKFFADMHRKDLHDDAEWMAKQVYLNVGNFLLGVAALGLDAVPIEGFDAAILDAEFGLKEKGYTSLVVVPVGHHSVEDFNATLPKSRLPQNITLTEV 5.7

What measured kcat goes with F124K: NTR mutant, phenylalanine 124 to lysine (protein) MDIISVALKRHSTKAFDASKKLTPEQAEQIKTLLQYSPSSTNSQPWHFIVASTEEGKARVAKSAAGNYVFNERKMLDASHVVVFCAKTAMDDVWLKLVVDQEDADGRFATPEAKAANDKGRKFKADMHRKDLHDDAEWMAKQVYLNVGNFLLGVAALGLDAVPIEGFDAAILDAEFGLKEKGYTSLVVVPVGHHSVEDFNATLPKSRLPQNITLTEV ? 5.72
